Numbers sourced from PubChem BioAssay (NCI).

System: BT-549 breast
Experiment: NCI tumour cell line growth inhibition, 48 h
QUANTITY: TGI

INSERT INTO measurements (molecule, result) VALUES
  ('CCCCCCCCCCCCCCC(C(=O)[O-])[n+]1ccccc1 (stereo not drawn)', '> 100 µM'),
  ('O=C(c1ccc(-c2ccccc2)cc1)N(Cc1cccnc1)C(=S)N(Cc1cccnc1)C(=O)c1ccc(-c2ccccc2)cc1', '> 100 µM'),
  ('Cc1cc(C)nc(NS(=O)(=O)c2ccc(Nc3nc4nc(NCc5ccccc5)nc(-c5ccc(O)cc5)c4c(=O)[nH]3)cc2)n1', '52.9 µM');

---

List of TGI values.
System: SN12C renal
Assay: NCI tumour cell line growth inhibition, 48 h
QUANTITY: TGI

INSERT INTO measurements (smiles_repr, quantity, result) VALUES
  ('CC(=O)N(C(=O)CC(=O)NNCc1ccccc1Cl)c1ccc(Cl)cc1', 'TGI', '> 10 µM'),
  ('N=C(N)c1ccc(CS(=O)(=O)F)cc1', 'TGI', '> 100 µM'),
  ('CN(C)C=O.CN(C)C=O.CN1C(C(=O)Nc2ccccn2)=C([O-])c2ccccc2S1(=O)=O.CN1C(C(=O)Nc2ccccn2)=C([O-])c2ccccc2S1(=O)=O.[Cu+2]', 'TGI', '> 100 µM');

---

molecules and their reported TGI
Tested on: MDA-MB-435
Assay: NCI tumour cell line growth inhibition, 48 h
QUANTITY: TGI

INSERT INTO measurements (molecule, measured_on, result) VALUES
  ('C/C(=N\N)C(CN1CCCCC1)C(c1ccccc1)c1c(O)c2ccccc2oc1=O (stereo not given)', 'MDA-MB-435', '> 100 µM'),
  ('Cc1cc(C)c(-n2c(C)c(C)c(C#N)c2N)c(C)c1', 'MDA-MB-435', '> 100 µM'),
  ('Cc1c(C)n(CC(O)CNC2CCCCC2C)c2ccccc12 (stereo not given)', 'MDA-MB-435', '25.4 µM'),
  ('Clc1ccc(-c2c3nc(c(-c4ccc(Cl)cc4)c4ccc([nH]4)c(-c4ccc(Cl)cc4)c4nc(c(-c5ccc(Cl)cc5)c5ccc2[nH]5)C=C4)C=C3)cc1', 'MDA-MB-435', '> 100 µM'),
  ('CC1(C)CCCC2(C)C3=C(CCC12)C(=O)OC3 (stereo not given)', 'MDA-MB-435', '> 100 µM'),
  ('CS(=O)(=O)c1nccc(-c2c(-c3cccc(OCc4ccccc4)c3)nc3sccn23)n1', 'MDA-MB-435', '> 100 µM'),
  ('Cc1nnc(N2C(=O)C(=Cc3ccc(Cl)cc3)N=C2c2ccc(Cl)cc2)nc1/C=C\c1ccc(N(C)C)cc1', 'MDA-MB-435', '> 100 µM'),
  ('OC1C2CCC3C2CC(C(O)(c2ccccc2)c2ccccc2)C13 (stereo not given)', 'MDA-MB-435', '> 100 µM'),
  ('SCc1ccc(-c2ccc(CS)cc2)cc1', 'MDA-MB-435', '22.8 µM'),
  ('CC/C=C\C[C@H](O)C/C=C1/C(=O)C=C[C@@H]1C/C=C\CCCC(=O)OCCS(=O)(=O)c1ccccc1', 'MDA-MB-435', '8.26 µM'),
  ('COCn1c(=O)n(C)c(=O)c2c1nc1c(c(=O)n(C)c(=O)n1COC)[n+]2[O-]', 'MDA-MB-435', '40.2 µM'),
  ('CC1=CC[C@@H]2[C@@H](CC[C@@]2(C)O)C(C)(C)[C@H]1CC[C@@H]1[C@@]2(C)CC[C@@H](O)C(C)(C)O[C@@H]2CC[C@]1(C)O', 'MDA-MB-435', '57 µM'),
  ('COc1cc(/C=C2/CCCc3ccccc3C2=O)cc(OC)c1OC', 'MDA-MB-435', '> 70.6 µM'),
  ('Cc1ccc(N/C(=C(/C(Cl)=C(Cl)Cl)[N+](=O)[O-])n2nnc3ccccc32)cc1', 'MDA-MB-435', '40.2 µM'),
  ('O=S(Nc1ccccc1)c1ccccc1Oc1ccccc1 (stereo not given)', 'MDA-MB-435', '> 100 µM'),
  ('O=c1oc2cc(O)ccc2c(O)c1C(c1ccc2ccccc2c1)c1c(O)c2ccc(O)cc2oc1=O', 'MDA-MB-435', '> 100 µM'),
  ('Nc1nc(Cl)cc(NCC2(CO)CC(CCCc3ccccc3)C2)n1 (stereo not given)', 'MDA-MB-435', '> 100 µM'),
  ('CC(C)(C)n1nc(C2CC2)cc1NC(=O)Nc1ccc(Cl)cc1', 'MDA-MB-435', '> 100 µM'),
  ('NCc1ccc(O)c(O)c1O', 'MDA-MB-435', '32.7 µM'),
  ('C=C(C)[C@@H]1CC[C@]2(C(=O)N3CCN(C)CC3)CC[C@]3(C)[C@H](CC[C@@H]4[C@@]5(C)C/C(=C/c6ccncc6)[C@H](O)C(C)(C)[C@@H]5CC[C@]43C)[C@@H]12', 'MDA-MB-435', '33.9 µM'),
  ('Cc1cccc(-c2cccc(COCc3cccc(-c4cccc(CO)n4)n3)n2)n1', 'MDA-MB-435', '> 50 µM'),
  ('S=C(Nc1ccc(Cl)cc1)c1ccc(CN2CCCCC2)s1', 'MDA-MB-435', '67.6 µM'),
  ('CN(C)C(=O)C(NCCO)c1ccccc1 (stereo not given)', 'MDA-MB-435', '> 100 µM'),
  ('O=C1c2ccccc2-c2nc(-c3cccs3)cc3c2c1nc1ccccc13', 'MDA-MB-435', '4.51 µM'),
  ('C/C(=N\NC(=O)c1cccc(S(=O)(=O)N2CCN(C)CC2)c1)c1cc(Cl)ccc1O', 'MDA-MB-435', '> 100 µM'),
  ('CCCCCCCCCCCCCCCCC(=O)NCC(=O)NCC(=O)NC(Cc1ccccc1)C(=O)Oc1ccc([N+](=O)[O-])cc1 (stereo not given)', 'MDA-MB-435', '> 100 µM'),
  ('NNC(=O)C(O)C(O)C(O)CO (stereo not given)', 'MDA-MB-435', '> 100 µM'),
  ('Cn1cc(S(=O)(=O)NC(=O)Nc2ccc(Cl)cc2)c(=O)c2ccc(Cl)cc21', 'MDA-MB-435', '> 100 µM'),
  ('Cc1ccccc1NC(=O)N/C(N)=N/c1nc(C)c(C)s1', 'MDA-MB-435', '0.468 µM'),
  ('Cn1c(=O)c2c(nc(N3CCOCC3)n2CCCNCC(O)c2ccc(O)c(O)c2)n(C)c1=O (stereo not given)', 'MDA-MB-435', '> 100 µM'),
  ('COc1c(N2CCCCC2)c2c(=O)c3ccccc3oc2c2cc(C)oc12', 'MDA-MB-435', '> 100 µM'),
  ('CN(C)c1ccc(/C=N/NC(=O)CSc2nc3sc4c(c3c(=O)n2-c2ccccc2)CCCCC4)cc1', 'MDA-MB-435', '> 100 µM'),
  ('COc1cc(-c2nn(-c3ccc(NC(=O)Nc4ccc(Cl)c(C(F)(F)F)c4)cc3)cc2-c2ccncc2)ccc1Cl', 'MDA-MB-435', '3.54 µM'),
  ('N=C1/C(=C/c2ccco2)C(=O)N=C2SC=NN12', 'MDA-MB-435', '> 100 µM'),
  ('CC(C)C(C)C(O)C(O)C(C)C1CCC2C3COC(=O)C4CC(O)C(O)CC4(C)C3CCC12C (stereo not given)', 'MDA-MB-435', '> 100 µM');
